assay: Similarity index (SI) value of the compound.; format: functional
Lab note: compare SI with 0.4, writing true if less and false if equal or more.

compound-structure	label
O=S(=O)(O)c1cc(/N=N/c2cc(S(=O)(=O)O)c3cccnc3c2O)ccc1/C=C/c1ccc(/N=N/c2cc(S(=O)(=O)O)c3cccnc3c2O)cc1S(=O)(=O)O	true
Nc1cc(N)c(/N=N/c2ccc(/C=C/c3ccc(/N=N/c4c(N)cc(N)cc4C(=O)O)cc3S(=O)(=O)O)c(S(=O)(=O)O)c2)c(C(=O)O)c1	false
COc1cc(-c2ccc(/N=N/c3ccc4c(S(=O)(=O)O)ccc(S(=O)(=O)O)c4c3N)c(OC)c2)ccc1/N=N/c1ccc2c(S(=O)(=O)O)ccc(S(=O)(=O)O)c2c1N	false
O=C(O)c1cc(O)cc(O)c1/N=N/c1ccc(/C=C/c2ccc(/N=N/c3c(O)cc(O)cc3C(=O)O)cc2S(=O)(=O)O)c(S(=O)(=O)O)c1	true
Nc1c(S(=O)(=O)O)cc2cc(S(=O)(=O)O)ccc2c1/N=N/c1ccc(/C=C/c2ccc(/N=N/c3c(N)c(S(=O)(=O)O)cc4cc(S(=O)(=O)O)ccc34)cc2S(=O)(=O)O)c(S(=O)(=O)O)c1	true

Below: the item to evaluate.
Report whether reported SI is lower than 0.4 (strictly) for O=S(=O)(O)c1cc(/N=N/c2ccc3cccnc3c2O)ccc1/C=C/c1ccc(/N=N/c2ccc3cccnc3c2O)cc1S(=O)(=O)O
false
